# System: AURKB
# assay.setup: concentration: 1 μM, replicates: in singlicate; n = 1;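 further: KINOMEscan kinase panel screen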
Answer False if %Inh is under 7%, and True if it is 7% or more.

# example entries with known answers
Cl.Cl.NCC(NC(=O)c1cc(-c2ccccc2)c(-c2ccnc3[nH]ccc23)s1)c1ccccc1 (stereo not drawn)    False
c1ccc(-c2n[nH]cc2Nc2ccnc3ccccc23)nc1    True
Cc1ccc(C(=O)Nc2ccc(Nc3ccnc4cc(-c5nccs5)ccc34)cc2O)cc1.Cl    True

In plain terms: is recorded %Inh at least 7% for `COc1ccc(CNC(=O)NC2CCN(c3ccnc(Nc4ccc(F)cc4)n3)CC2)cc1` ?
True

In plain terms: is recorded %Inh at least 7% for `Cl.c1ccc(-c2ccc3c(Nc4ccc5[nH]ccc5c4)ccnc3c2)nc1` ?
False

In plain terms: is recorded %Inh at least 7% for Cl.Cl.NCC(C(=O)Nc1cc(Br)c(-c2ccnc3[nH]ccc23)s1)c1ccccc1 (stereo not drawn) ?
True

In plain terms: is recorded %Inh at least 7% for `CCc1ccc(-c2ccc3c(c2)-c2c(cnn2C)S(=O)(=O)N3C)cc1` ?
False

In plain terms: is recorded %Inh at least 7% for `COc1cccc(-c2ccc3c(NC(=O)C4CC4)n[nH]c3n2)c1` ?
True

----------
# Test system: TAOK1
# assay.setup: concentration: 1 μM, replicates: in singlicate; n = 1
Reported %Inh values for a set of compounds
// units = %; emit number, no label

Example cases with answers are listed next.
O=C(Nc1ccccc1F)NC1CCN(c2ccnc(Nc3ccc(F)cc3)n2)CC1    0
Cn1cc(-c2ccc3c(c2)CCN3C(=O)Cc2cccc(F)c2)c2c(N)ncnc21    0
c1ccc(-c2cnc3nccnn23)cc1    0
O=C(Nc1cccc(-c2nn3ccccc3c2-c2ccnc(Nc3cccc(F)c3)n2)c1)c1c(F)ccc(F)c1Cl    33
O=C(Nc1n[nH]c2cc(-c3ccoc3)ccc12)C1CC1    65

// switching to the query compound
Determine its reported %Inh: `Clc1ccc(-c2nn3ncccc3c2-c2ccnc(Nc3ccc4c(c3)OCCO4)n2)cc1`
0

----------
Reported %Inh values for a set of compounds
# Test system: CDK2
# assay.setup: concentration: 1 μM, replicates: in singlicate; n = 1
// units = %; emit number, no label

Example cases with answers are listed next.
c1ccc(-c2n[nH]cc2Nc2ccnc3ccccc23)nc1    0
O=C(Nc1n[nH]c2cc(-c3ccoc3)ccc12)C1CC1    76
Cl.Cl.NCC(C(=O)Nc1cc(Br)c(-c2ccnc3[nH]ccc23)s1)c1ccccc1 (centres unmarked)    0

Fill in: %Inh on CDK2, entry Cc1ccc(C)c(NC(=O)NC2CCN(c3ccnc(Nc4ccc(F)cc4)n3)C2)c1 (centres unmarked)
0

Fill in: %Inh on CDK2, entry `Cn1cc(-c2ccc3c(c2)CCN3C(=O)Cc2cccc(Cl)c2)c2c(N)ncnc21`
0

----------
# System: YSK1
# Construct: gene STK25
# assay.setup: concentration: 1 μM, replicates: in singlicate; n = 1
endpoint: %Inh (%)
// units = %; emit number, no label

O=C(Nc1ccccc1F)NC1CCN(c2ccnc(Nc3ccc(F)cc3)n2)CC1    0
CN(C)S(=O)(=O)c1cc(-c2ccc3nccc(-c4cccc(S(N)(=O)=O)c4)c3c2)cnc1N    0
CCc1ccc(-c2ccc3c(c2)-c2c(cnn2C)S(=O)(=O)N3C)cc1    7
Cn1cc(-c2ccc3c(c2)CCN3C(=O)Cc2cccc(Cl)c2)c2c(N)ncnc21    18
Cc1ccc(C)c(NC(=O)NC2CCN(c3ccnc(Nc4ccc(F)cc4)n3)C2)c1 (centres unmarked)    0

Fill in: %Inh on YSK1, entry `CC(=O)N1CCN(c2ccc(Nc3nccc(-c4sc(C(C)C)nc4-c4cccc(NS(=O)(=O)c5cccc(Cl)c5)c4)n3)cn2)CC1`
0

Fill in: %Inh on YSK1, entry `Cl.c1ccc(-c2ccc3c(Nc4ccc5[nH]ccc5c4)ccnc3c2)nc1`
0

Fill in: %Inh on YSK1, entry Cl.Cl.NCC(NC(=O)c1cc(-c2ccccc2)c(-c2ccnc3[nH]ccc23)s1)c1ccccc1 (centres unmarked)
0
